This collection of values is drawn from PubChem BioAssay (NCI).

# System: NCI-H23 lung
# TEST_PROTOCOL: NCI-60 one-dose screen, 48 h
# CONDITION_INFO: 10 µM unless noted
Compounds without any hit were thinned out: in the full panel of roughly 83,000, 20% have a hit. Activity calls are given as the source filed them. Rule for the calls: active = growth percent below 10; inactive = the rest.
Field 'call' accepts YES (active), NO (inactive)

1) Cc1ccc(CSc2nc(-c3ccc(Cl)cc3)c(C#N)c(N3CCOCC3)n2)cc1 | NO

Lab note: next molecule to report on.
Name the outcome recorded for N#Cc1cccc(CN2CCC3=C(C2)C(=O)N(Cc2ccc(Cl)cc2)C2=NCCN23)c1 in the assay.
NO

###

# Test system: CAKI-1 renal
# TEST_PROTOCOL: NCI-60 one-dose screen, 48 h (100 = growth as untreated, 0 = no growth, -100 = all killed)
# CONDITION_INFO: 10 µM unless noted
This is part of a sample that, as a whole, favours compounds with a hit. Of some 83,000 tested, about 20% had one in any assay.
RECORDED_METRIC: growth (%)
Response body: numeric value in %, unit text excluded.

1) Cc1[nH]c(C(=O)Nc2ccccc2OCc2cccc(C(=O)N3CCC[C@@H](N)C3)c2)c(Cl)c1Cl | -92.8
2) Cn1cc(-c2nc(N)nnc2-c2c[nH]c3ccccc23)c2cc(Br)ccc21 | 25.2
3) N#C/C(=C\c1ccc(-c2ccc(Cl)cc2Cl)o1)c1ccc(F)cc1 | 68.8
4) COc1cc(-c2nn(C(C)(C)C)cc2-c2ccnc(NCCCNS(=O)(=O)c3ccc(Cl)cc3)n2)ccc1Cl | 17.7
5) CCCCCc1ccc(S(=O)(=O)Nc2cccc(-c3csc(NC(=O)CCCCCN4CCN(CCO)CC4)n3)c2)cc1 | 95.3
6) Brc1ccccc1/C=N/Nc1nc(N/N=C/c2ccccc2Br)nc(N2CCOCC2)n1 | 109
7) CC(O)c1cc2ccccc2c(=O)o1 (stereo not given) | 91.5
8) CNC(=O)c1cc(Oc2ccc3nc(NC(=O)c4cccc(OC(F)(F)F)c4)sc3c2)ccn1 | 73.9

Entry Cc1cc2nc(C(Cl)Cl)nc(-c3cccs3)n2n1 ; growth = -30.9

Entry NC(=O)c1c(NC(=O)c2ccc(F)cc2F)sc2c1CCC(=O)C2 ; growth = 33.9

Entry COC(=O)C(Cc1ccccc1)Nc1nc(NC(Cc2ccccc2)C(=O)OC)nc(N2CCOCC2)n1 (stereo not given) ; growth = 86.8

Entry Clc1ccc(N/N=c2/oc3ccccc3cc2-c2cc3ccccc3[nH]2)cc1 ; growth = 58.4

Entry CCCCCCCn1cc2c(NCCc3ccccc3)ncnc2n1 ; growth = 78.7

Entry O=C(CSc1nnc(-c2ccc(Cl)cc2)n1-c1ccccc1)Nc1ccc(Br)cc1 ; growth = -53.6

Entry C=C(C=O)[C@@H]1CC[C@]2(C)[C@H](C(=O)C=C3[C@H]4C[C@](C)(C(=O)OC)CC[C@]4(C)CC[C@]32C)[C@@]1(C)CCC#N ; growth = 7.53

Entry O=C(Nc1ccc2c(ccn2Cc2ccccn2)c1)c1cnccn1 ; growth = 66.2

Entry O=C(CN1CCN(c2cc(=O)n(-c3ccccc3)c3ccccc23)CC1)Nc1ccc(F)cc1 ; growth = 63.7

Entry Fc1ccc(-c2cc3nc(C(Cl)Cl)nc(-c4ccc(F)cc4)n3n2)cc1 ; growth = -18.3

Entry CCn1c(SCC(=O)Nc2cccc(C(=O)/C=C/c3ccccc3Cl)c2)nc2ccccc2c1=O ; growth = 84.6

Entry COc1ccc(Cn2cc3c(c2-c2cc(OC)c(OC)c(OC)c2)CCc2c(CN4CCCC4)noc2-3)cc1 ; growth = 35.9

Entry CCc1ccc(SC2c3ccc(N(CC)CC)cc3Oc3nc(N)c(C#N)c(N)c32)cc1 (stereo not given) ; growth = -46.7

Entry NC/C(=C/F)COc1ccc2nc(NCc3cccnc3)oc2c1 ; growth = 69.8

Entry O=C(c1ccc(O)cc1)[C@@H]1CN[C@@]2(C(=O)Nc3ccccc32)[C@H]1c1ccc(F)cc1 ; growth = 106

Entry C=CCN(C)S(=O)(=O)/N=C1\NC(=O)NC1=C(Cl)Cl ; growth = 2.82

Entry CCOC(=O)c1c(NC(=O)c2ccccc2C(F)(F)F)sc2c1CCC(=O)C2 ; growth = 21.1

Entry CCCCCc1ccc(S(=O)(=O)Nc2cccc(-c3csc(NC(=O)CNCCN(C)C)n3)c2)cc1 ; growth = 86.8

Entry Nc1nc(-c2cccc([N+](=O)[O-])c2)c(N=Nc2cccc([N+](=O)[O-])c2)s1 ; growth = 34.5

Entry CC(C)c1ccc(NCc2cn(-c3ccc(C(=O)O)cc3)nc2-c2cc(C(F)(F)F)cc(C(F)(F)F)c2)cc1 ; growth = 63.7

Entry Nc1nc(-c2cccc([N+](=O)[O-])c2)c(N=Nc2ccc([N+](=O)[O-])cc2Cl)s1 ; growth = 4.29

Entry O=C(Nc1nonc1-c1ccccc1)c1ccc(C(F)(F)F)cc1 ; growth = 85.5
